target or system: Alpha-glucosidase MAL12 (Saccharomyces cerevisiae (strain ATCC 204508 / S288c))
Sequence (P53341 whole entry): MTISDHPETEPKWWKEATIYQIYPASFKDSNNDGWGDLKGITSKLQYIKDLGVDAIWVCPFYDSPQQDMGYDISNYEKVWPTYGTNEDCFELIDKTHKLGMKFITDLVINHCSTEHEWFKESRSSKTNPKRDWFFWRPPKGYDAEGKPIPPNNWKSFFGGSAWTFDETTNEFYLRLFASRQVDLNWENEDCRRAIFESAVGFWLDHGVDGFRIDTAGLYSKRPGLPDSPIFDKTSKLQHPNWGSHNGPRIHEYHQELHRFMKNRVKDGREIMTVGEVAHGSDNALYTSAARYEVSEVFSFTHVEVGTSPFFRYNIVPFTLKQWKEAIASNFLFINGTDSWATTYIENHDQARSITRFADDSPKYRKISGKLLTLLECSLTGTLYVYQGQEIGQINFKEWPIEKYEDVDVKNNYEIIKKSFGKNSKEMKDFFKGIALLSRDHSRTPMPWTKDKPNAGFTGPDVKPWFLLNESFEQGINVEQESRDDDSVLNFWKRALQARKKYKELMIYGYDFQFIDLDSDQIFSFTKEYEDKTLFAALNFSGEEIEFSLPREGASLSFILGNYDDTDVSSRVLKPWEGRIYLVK
experiment summary: α-Glucosidase Inhibition Assay
Below, each of the molecules is paired with its reported IC50 value.

{"structure": "c1ccc(-c2ccc(-c3nn(-c4ccccc4)cc3-c3nc(-c4ccccc4)c(-c4ccccc4)[nH]3)cc2)cc1", "IC50": "17.5 µM"}
{"structure": "c1ccc(-c2nn(-c3ccccc3)cc2-c2nc(-c3ccccc3)c(-c3ccccc3)[nH]2)cc1", "IC50": "22.2 µM"}
{"structure": "O=[N+]([O-])c1ccc(-n2cc(-c3nc(-c4ccccc4)c(-c4ccccc4)[nH]3)c(-c3ccccc3)n2)cc1", "IC50": "7.81 µM"}
{"structure": "O=c1oc2ccccc2cc1-c1nn(-c2ccccc2)cc1-c1nc(-c2ccccc2)c(-c2ccccc2)[nH]1", "IC50": "2.78 µM"}
{"structure": "COc1ccc(-c2nn(-c3ccccc3)cc2-c2nc(-c3ccccc3)c(-c3ccccc3)[nH]2)cc1", "IC50": "24 µM"}
{"structure": "O=[N+]([O-])c1ccc(-c2nn(-c3ccccc3)cc2-c2nc(-c3ccccc3)c(-c3ccccc3)[nH]2)cc1", "IC50": "20.7 µM"}
{"structure": "O=c1oc2ccc(Br)cc2cc1-c1nn(-c2ccccc2)cc1-c1nc(-c2ccccc2)c(-c2ccccc2)[nH]1", "IC50": "2.95 µM"}
{"structure": "Brc1ccc(-c2nn(-c3ccccc3)cc2-c2nc(-c3ccccc3)c(-c3ccccc3)[nH]2)cc1", "IC50": "12 µM"}
{"structure": "Cc1nn(-c2ccc([N+](=O)[O-])cc2)c(C)c1-c1nc(-c2ccccc2)c(-c2ccccc2)[nH]1", "IC50": "22 µM"}
{"structure": "Clc1ccc(-c2nn(-c3ccccc3)cc2-c2nc(-c3ccccc3)c(-c3ccccc3)[nH]2)cc1", "IC50": "13.2 µM"}
{"structure": "O=[N+]([O-])c1cccc(-c2nn(-c3ccccc3)cc2-c2nc(-c3ccccc3)c(-c3ccccc3)[nH]2)c1", "IC50": "12.8 µM"}
